Test system: Yap1 mRNA
testMethodNotes: Inhibition of human Yap1 mRNA in epidermoid carcinoma A-431 xenograft tumors (Example 27)
Assay type: in vivo
experimentalParameters: 50 mpk daily (5 doses), A-431 xenografts in NCr-Foxn1nu mice, 6-8 hours post final dose, relative to PBS
Experimental: An epidermoid carcinoma A-431 xenograft tumor model was used to evaluate activity of modified oligonucleotides targeted to human Yap1. Five million A-431 cells in 30% matrigel were implanted subcutaneously into the flanks of female NCr-Foxn1nu mice (from Taconic) at 4-6 weeks of age. […] Yap1 mRNA levels were measured as previously described using the Human Yap1 primer-probe set RTS4814. Yap1 mRNA levels were normalized to actin-beta content, as measured by primer probe set RTS5002. […]
Please provide measured Yap1 mRNA in tumors, % control for the entries that follow.
API: value field is a number in % control; no unit string.

Field request: Yap1 mRNA in tumors, % control | item: 1198872 (TGTATGTCAGAAGAGT; chemically modified gapmer, further chemistry not given here) [compound 1198872]
26

What about 1198439 (AGTGTATGTCAGAAGA; sugar, 5-methylcytosine, phosphorothioate modifications, further chemistry not given here) [compound 1198439] ?
19

What about 1198831 (CACTTTTACATTAGGA; chemically modified gapmer, further chemistry not given here) [compound 1198831] ?
37

What about 1197270 (TTAAAGTGTATGTCAG; cEt gapmer with 2'-OMe nucleoside, phosphorothioate, further chemistry not given here) [compound 1197270] ?
38

What about 1076453 (GTAATATTGCAATCTG; 3-10-3 cEt gapmer, further chemistry not given here) [compound 1076453] ?
25

###

Please provide measured % UTC (Yap1 mRNA) for the entries that follow.
System: Yap1 mRNA
testMethodNotes: Dose-dependent inhibition of human Yap1 in A-431 cells (Example 8, 10,000 cells per well, RTS4814)
Type: cell-based
experimentalParameters: 500.0 nM; A-431 cells
Strand notation (5' to 3'): a small letter for the sugar, then the base; units joined by * are phosphorothioate-linked, units joined directly phosphodiester-linked; [ ] holds rarer units or linkages, { } end groups; capitals alone tell only the bases. k = constrained ethyl (cEt); [5mC] = 5-methylcytosine; d = 2'-deoxy (DNA)
API: value field is a number in % UTC; no unit string.

Field request: % UTC (Yap1 mRNA) | item: 1075701 (kA*kA*kT*dT*dA*d[5mC]*dT*dA*dG*dA*dG*dG*d[5mC]*kT*kT*k[5mC]; antisense) [compound 1075701]
11

What about 1074229 (antisense kG*kA*kA*dG*dA*d[5mC]*dT*dG*dT*d[5mC]*dG*dA*dA*kG*kA*kT) [compound 1074229] ?
9

What about 1075222 (kG*kT*kA*dT*dT*dT*dG*dG*dA*d[5mC]*dA*dA*d[5mC]*kT*k[5mC]*kT; antisense) [compound 1075222] ?
8

What about 1074421 (kT*kG*kA*dT*dT*d[5mC]*dT*dT*dT*dA*dG*dA*dG*k[5mC]*k[5mC]*kA; antisense) [compound 1074421] ?
8

What about 1075061 (antisense k[5mC]*k[5mC]*kT*dT*dA*dT*dA*d[5mC]*dT*dT*dT*dT*dA*kG*k[5mC]*k[5mC]) [compound 1075061] ?
9

What about 958499 (ATTAGAGTATGTGGCA; 3-10-3 cEt gapmer, further chemistry not given here) [compound 958499] ?
2

###

testMethodNotes: Tolerability in Sprague-Dawley rats, body and organ weights (Example 22)
Type: in vivo
experimentalParameters: male Sprague-Dawley rats, 50 mg/kg s.c. weekly for 6 weeks (7 doses), end of study
Experimental: Terminal body weight was measured prior to necropsy. Ionis oligonucleotides that caused any changes in organ weights outside the expected range for modified oligonucleotides were excluded from further studies.
Please provide measured Kidney weight for the entries that follow.
API: value field is a number in g; no unit string.

Field request: Kidney weight | item: 1197270 (TTAAAGTGTATGTCAG; cEt gapmer with 2'-OMe nucleoside, phosphorothioate, further chemistry not given here) [compound 1197270]
3.6

What about 1198623 (CTAAGTAAGGTTTCCC; modified gapmer, further chemistry not given here) [compound 1198623] ?
3.6

What about 1198872 (TGTATGTCAGAAGAGT; chemically modified gapmer, further chemistry not given here) [compound 1198872] ?
3.4

###

Tested on: Yap1 mRNA
testMethodNotes: Antisense inhibition of human Yap1 in A-431 cells by cEt gapmers, single dose (Example 4, RTS4814)
Type: cell-based
experimentalParameters: Table 16; A-431 cells, 5,000 cells per well, free uptake, 2,000 nM, approximately 48 hours; RTS4814; normalized to RIBOGREEN; Yap1 mRNA relative to untreated control cells
Strand notation (5' to 3'): a small letter for the sugar, then the base; units joined by * are phosphorothioate-linked, units joined directly phosphodiester-linked; [ ] holds rarer units or linkages, { } end groups; capitals alone tell only the bases. k = constrained ethyl (cEt); [5mC] = 5-methylcytosine; d = 2'-deoxy (DNA)
Please provide measured YAP1 (% UTC) for the entries that follow.
Don't forget the unit after the number, please.

Field request: YAP1 (% UTC) | item: 1075234 (antisense kG*kT*kA*dA*dA*dT*dA*d[5mC]*dT*d[5mC]*dT*dA*dG*kT*kT*k[5mC]) [Compound 1075234]
22 % UTC

What about 1075074 (antisense kT*kA*kT*dA*dG*dT*dA*dA*dG*dA*d[5mC]*dT*dA*kA*kT*k[5mC]) [Compound 1075074] ?
105 % UTC

What about 1074146 (antisense kG*kA*kA*dG*d[5mC]*dG*dG*d[5mC]*dG*dA*d[5mC]*dG*dG*k[5mC]*kT*kG) [Compound 1074146] ?
91 % UTC

What about 1075202 (antisense kA*kA*kT*dT*dA*dT*dA*dT*dA*dA*dG*dG*d[5mC]*kT*kG*kT) [Compound 1075202] ?
26 % UTC

What about 1075298 (kA*kT*k[5mC]*dT*d[5mC]*dG*dG*dA*dA*dA*dT*dT*dT*kA*kA*kA; antisense) [Compound 1075298] ?
128 % UTC

What about 1075842 (kG*kT*kA*dT*dT*dT*dA*dG*dG*dT*dA*d[5mC]*dT*k[5mC]*kA*kG; antisense) [Compound 1075842] ?
2 % UTC

What about 1075522 (k[5mC]*kA*kA*dA*dT*d[5mC]*dG*dA*dG*dG*d[5mC]*dG*dA*kA*kT*k[5mC]; antisense) [Compound 1075522] ?
82 % UTC

What about 1075042 (antisense kT*kT*kA*dA*dA*dA*dG*dG*dT*dT*dT*dG*dG*k[5mC]*kA*k[5mC]) [Compound 1075042] ?
17 % UTC

What about 1074274 (antisense kG*kT*kT*d[5mC]*dT*dT*dA*dT*dG*dG*dT*dT*dT*kA*kT*kA) [Compound 1074274] ?
4 % UTC

What about 1074562 (antisense kG*kA*kA*dT*dT*d[5mC]*d[5mC]*dA*dA*dT*d[5mC]*dG*dA*kG*kA*k[5mC]) [Compound 1074562] ?
30 % UTC

What about 1076354 (kG*kA*kT*dT*dA*dA*dA*d[5mC]*dA*dT*dT*d[5mC]*dG*kG*kA*kT; antisense) [Compound 1076354] ?
13 % UTC

What about 1074114 (kG*kA*kA*d[5mC]*dT*dT*dT*dT*dT*d[5mC]*d[5mC]*d[5mC]*dT*k[5mC]*k[5mC]*kA; antisense) [Compound 1074114] ?
30 % UTC

What about 1075778 (k[5mC]*kA*kT*dT*dT*dA*dT*dA*d[5mC]*d[5mC]*dA*dG*dG*k[5mC]*kA*k[5mC]; antisense) [Compound 1075778] ?
3 % UTC

What about 1076002 (kA*kT*kT*dT*dA*dA*dT*dG*dG*d[5mC]*dT*dT*dG*k[5mC]*kA*kT; antisense) [Compound 1076002] ?
21 % UTC

What about 1075618 (kT*kT*kT*dT*dA*dA*dG*dA*dA*d[5mC]*dG*dA*d[5mC]*kA*kT*kA; antisense) [Compound 1075618] ?
69 % UTC

What about 1075106 (antisense k[5mC]*kA*kA*dA*dT*dT*dA*dT*dA*dA*dG*dG*dT*k[5mC]*k[5mC]*kT) [Compound 1075106] ?
10 % UTC

What about 1074786 (kA*kA*k[5mC]*d[5mC]*dA*dT*dA*dA*dG*dT*dA*dG*dA*kT*k[5mC]*kT; antisense) [Compound 1074786] ?
28 % UTC

What about 1074178 (antisense kG*k[5mC]*k[5mC]*dT*d[5mC]*d[5mC]*d[5mC]*d[5mC]*d[5mC]*dG*dA*d[5mC]*dG*k[5mC]*kG*k[5mC]) [Compound 1074178] ?
95 % UTC

What about 1076386 (kA*kG*kT*dT*dA*dT*dA*dA*d[5mC]*dA*dG*dT*dG*kT*kA*kA; antisense) [Compound 1076386] ?
7 % UTC

What about 1075970 (kG*k[5mC]*kT*dT*dA*dA*dA*dA*dG*dG*dA*d[5mC]*dA*kG*kT*kA; antisense) [Compound 1075970] ?
34 % UTC

What about 1076290 (k[5mC]*kT*k[5mC]*d[5mC]*dA*dA*d[5mC]*dG*dG*dA*d[5mC]*dA*dA*k[5mC]*kT*kT; antisense) [Compound 1076290] ?
28 % UTC

What about 1075170 (antisense kA*k[5mC]*kT*dA*dA*dA*dA*dT*d[5mC]*d[5mC]*d[5mC]*d[5mC]*dA*kA*kG*kG) [Compound 1075170] ?
94 % UTC

What about 1074466 (kA*k[5mC]*k[5mC]*dG*dA*d[5mC]*d[5mC]*d[5mC]*dT*dG*d[5mC]*d[5mC]*dA*kA*kA*kA; antisense) [Compound 1074466] ?
32 % UTC

What about 1075010 (antisense kA*kA*kT*dA*dA*dT*d[5mC]*dG*dA*dA*d[5mC]*dA*dT*kT*kG*kT) [Compound 1075010] ?
88 % UTC

What about 1076162 (kA*kT*kT*dT*dA*d[5mC]*dT*dT*dG*dG*d[5mC]*dA*dA*k[5mC]*kT*k[5mC]; antisense) [Compound 1076162] ?
9 % UTC
